# systemName: EGFR d746-750/T790M (Homo sapiens, UniProt P00533, DEL746-750/T790M)
# Sequence (P00533 with tags, fused parts or gaps DEL746-750/T790M limits assumed): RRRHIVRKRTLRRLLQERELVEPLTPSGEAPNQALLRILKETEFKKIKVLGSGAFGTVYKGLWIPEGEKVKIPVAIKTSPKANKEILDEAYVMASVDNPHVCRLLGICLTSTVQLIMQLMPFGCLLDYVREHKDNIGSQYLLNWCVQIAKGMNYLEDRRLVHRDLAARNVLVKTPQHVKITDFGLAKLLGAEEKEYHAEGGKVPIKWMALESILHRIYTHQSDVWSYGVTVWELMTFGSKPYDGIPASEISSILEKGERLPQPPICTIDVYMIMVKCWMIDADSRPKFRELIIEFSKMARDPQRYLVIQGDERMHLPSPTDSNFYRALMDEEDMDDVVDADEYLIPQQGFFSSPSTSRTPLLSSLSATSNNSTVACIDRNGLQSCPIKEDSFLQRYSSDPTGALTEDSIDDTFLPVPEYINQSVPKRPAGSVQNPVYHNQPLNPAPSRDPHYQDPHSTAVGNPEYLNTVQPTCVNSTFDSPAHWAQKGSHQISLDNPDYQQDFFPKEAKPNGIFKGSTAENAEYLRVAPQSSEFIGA
# assayText: EGFR d746-750/T790M enzyme HTRF inhibition assay
# conditionInfo: 40 μM ATP
As shown below, each of these compounds has a reported pIC50 value.
The meaning of pIC50 here: minus log10 of the concentration in molar units.

For orientation, consider the following solved cases.
smilesString	pIC50
C=CC(=O)Nc1cc(Nc2nccc(-c3c4n(c5ccccc35)CCOC4)n2)c(OC(C)C)cc1N(C)CCN(C)C	9.42
C=CC(=O)Nc1cc(Nc2nccc(-c3c4n(c5ccccc35)CC(F)(F)CC4)n2)c(OC)cc1N(C)CCN(C)C	9.48
C=CC(=O)Nc1cc(Nc2nccc(-c3c4n(c5ccccc35)CCOC4)n2)c(OC)cc1N(C)CCN(C)CC	9.74
C=CC(=O)Nc1cc(Nc2nccc(-c3c4n(c5ccccc35)CCCC4)n2)c(OC)cc1N(C)CCN(C)C	9.43

pIC50 measured on C=CC(=O)Nc1cc(Nc2nccc(-c3cn4c5c(cccc35)OC3(CC3)C4)n2)c(OC)cc1N(C)CCN(C)C = 9.70
